# Average duplex melting temp. values compiled below
Test system: yeast HSP78 (YDR258C) sequence
ASSAY DETAILS: Duplex melting temperatures of HSP78 25-mer capture probes (UV spectrophotometer)
PARTICULARS: 25-mer capture probe duplex with complementary target; design PM = perfectly matched, MM = single mismatch; DNA, LNA_T (T) or LNA_TC (TC) substituted
l = locked nucleic acid (LNA); [5mC] = 5-methylcytosine; d = 2'-deoxy (DNA)
Expressed in °C, but write only the number.

Report Average duplex melting temp. for 12780 (DNA GAAACATCGGGGTGCGCTTTTTCAA; DNA at ACG, LNA at T, backbone not given here; further chemistry not fully specified) [compound 12780] please.
78

Report Average duplex melting temp. for 12754 (DNA TGGCCTAGGGAATCGGTCAGCTTAC; DNA, backbone not given here; further chemistry not fully specified) [compound 12754] please.
70.1

Report Average duplex melting temp. for 12692 (DNA GATGAACTCAGGAGGATAGGATCTT; DNA, backbone not given here) [compound 12692] please.
58.2

Report Average duplex melting temp. for 12778 (DNA TGGCCTAGGGAATCGGTCAGCTTAC; DNA at ACG, LNA at T, backbone not given here; further chemistry not fully specified) [compound 12778] please.
76.9

Report Average duplex melting temp. for 12770 (DNA TTTTTCGGCCAAACGATCTTGAATT; DNA, backbone not given here; further chemistry not fully specified) [compound 12770] please.
65

Report Average duplex melting temp. for 12690 (DNA ATAGCAGCAATGCCCTCGTCTTGGC; DNA, backbone not given here) [compound 12690] please.
62.9

Report Average duplex melting temp. for 12749 (DNA AAAACGACAGCAAAAGGCTTTCTTC; sugars from the 5' end ddddlddlddlddddddlldlldld, [5mC] at 5, 8, 11, 18, 22, backbone not given here) [compound 12749] please.
72

Report Average duplex melting temp. for 12810 (DNA ATAGCAGCAATGGCCTCGTCTTGGC; sugars from the 5' end dlddldddddlddldldddldlddd, [5mC] at 5, 14, 20, backbone not given here; further chemistry not fully specified) [compound 12810] please.
83

Report Average duplex melting temp. for 12731 (DNA TTGGAAACATCGCGGTGCGCTTTTT; sugars from the 5' end lldddddlddlddddldldddldld, [5mC] at 8, 11, 18, backbone not given here) [compound 12731] please.
72

Report Average duplex melting temp. for 12764 (DNA GATGAACTCAGGTGGATAGGATCTT; DNA, backbone not given here; further chemistry not fully specified) [compound 12764] please.
64

Report Average duplex melting temp. for 12753 (DNA CAATGATCGTGTTACGGAAATCAAC; DNA, backbone not given here; further chemistry not fully specified) [compound 12753] please.
64.2

Report Average duplex melting temp. for 12765 (DNA TCAGTTAGCCAATCCTTCGCTTCAT; DNA, backbone not given here; further chemistry not fully specified) [compound 12765] please.
66.1

Report Average duplex melting temp. for 12785 (DNA AAATAGCAGCAATGGCCTCGTCTTG; DNA at ACG, LNA at T, backbone not given here; further chemistry not fully specified) [compound 12785] please.
77.2

Report Average duplex melting temp. for 12711 (DNA ATCAAATAGGAAATCAGCTAAAGCC; sugars from the 5' end dlddddldddddddddddldddddd, backbone not given here) [compound 12711] please.
58.1

Report Average duplex melting temp. for 12822 (DNA ATTGACCTCAAAACTTTCTTGGATA; sugars from the 5' end dllddllllddddllldllldddld, all C 5-methyl, backbone not given here; further chemistry not fully specified) [compound 12822] please.
75.6

Report Average duplex melting temp. for 12774 (DNA ATTGACCTCAAAACTTTCTTGGATA; DNA, backbone not given here; further chemistry not fully specified) [compound 12774] please.
61.8

Report Average duplex melting temp. for 12737 (DNA AAATAGCAGCAAAGGCCTCGTCTTG; sugars from the 5' end dddlddlddldddddldlldlddld, [5mC] at 7, 10, 16, 19, backbone not given here) [compound 12737] please.
79.3

Report Average duplex melting temp. for 12739 (DNA GCAATGGCCTCGACTTGGCCAACGA; sugars from the 5' end d10 l1 d2 l1 d11, [5mC] at 11, 14, backbone not given here) [compound 12739] please.
73.1

Report Average duplex melting temp. for 12716 (DNA GATGAACTCAGGAGGATAGGATCTT; sugars from the 5' end ddlddddlddddddddlddddldld, backbone not given here) [compound 12716] please.
64.9
